Tested on: Pseudomonas aeruginosa
assay comment: Antimicrobial activity against Pseudomonas aeruginosa at 20 ug by agar diffusion test
Assay type: functional
run parameters: read-out: IZ
Exercise: for every item that follows, state its recorded zone of inhibition at 20 µg/disc.

// fetch zone of inhibition at 20 µg/disc; item: C=C1CCCC2[C@](C)(Cc3cc(CO)cc(O)c3OS(=O)(=O)O)[C@@H](C)CC[C@]12C (stereo not given in full) [SIPHONODICTYOL G] ; system: Pseudomonas aeruginosa
0 mm

// fetch zone of inhibition at 20 µg/disc; item: C[C@H]1CCC2C(C)(C)CCC[C@]2(C)/C1=C/c1cc(OS(=O)(=O)O)c(O)c(C=O)c1OS(=O)(=O)O (stereo not given in full) [SIPHONODICTYAL B3] ; system: Pseudomonas aeruginosa
0 mm

// fetch zone of inhibition at 20 µg/disc; item: C=C1CCCC2[C@](C)(Cc3cc(C=O)cc(O)c3OS(=O)(=O)O)[C@@H](C)CC[C@]12C (stereo not given in full) [SIPHONODICTYAL G] ; system: Pseudomonas aeruginosa
0 mm

// fetch zone of inhibition at 20 µg/disc; item: C[C@H]1CCC2C(C)(C)CCC[C@]2(C)/C1=C/c1cc(O)c(O)c(C=O)c1OS(=O)(=O)O (stereo not given in full) [SIPHONODICTYAL B2] ; system: Pseudomonas aeruginosa
0 mm

// fetch zone of inhibition at 20 µg/disc; item: C[C@H]1CCC2C(C)(C)CCC[C@]2(C)/C1=C/c1cc(O)c(O)c(/C=N/CCS(=O)(=O)O)c1OS(=O)(=O)O (stereo not given in full) [SIPHONODICTYAL B1] ; system: Pseudomonas aeruginosa
0 mm

---

Exercise: for every item that follows, state its recorded zone of inhibition at 20 µg/disc.
Test system: Escherichia coli
assay comment: Antimicrobial activity against Escherichia coli tolC at 20 ug by agar diffusion test
Assay type: functional
run parameters: read-out: IZ
Use mm as the unit, but write only the number.

State its zone of inhibition at 20 µg/disc for this molecule: C[C@H]1CCC2C(C)(C)CCC[C@]2(C)/C1=C/c1cc(O)c(O)c(/C=N/CCS(=O)(=O)O)c1OS(=O)(=O)O (stereo partly specified) [SIPHONODICTYAL B1]
0

State its zone of inhibition at 20 µg/disc for this molecule: C[C@H]1CCC2C(C)(C)CCC[C@]2(C)/C1=C/c1cc(O)c(O)c(C=O)c1OS(=O)(=O)O (stereo partly specified) [SIPHONODICTYAL B2]
0

State its zone of inhibition at 20 µg/disc for this molecule: C[C@H]1CCC2C(C)(C)CCC[C@]2(C)/C1=C/c1cc(O)c(O)c(C=O)c1O (stereo partly specified) [SIPHONODICTYAL B]
9

State its zone of inhibition at 20 µg/disc for this molecule: C=C1CCCC2[C@](C)(Cc3cc(CO)cc(O)c3OS(=O)(=O)O)[C@@H](C)CC[C@]12C (stereo partly specified) [SIPHONODICTYOL G]
0

State its zone of inhibition at 20 µg/disc for this molecule: C[C@H]1CCC2C(C)(C)CCC[C@]2(C)/C1=C/c1cc(OS(=O)(=O)O)c(O)c(C=O)c1OS(=O)(=O)O (stereo partly specified) [SIPHONODICTYAL B3]
0

State its zone of inhibition at 20 µg/disc for this molecule: C=C1CCCC2[C@](C)(Cc3cc(C=O)cc(O)c3OS(=O)(=O)O)[C@@H](C)CC[C@]12C (stereo partly specified) [SIPHONODICTYAL G]
0

---

Test system: L929
assay comment: Cytotoxicity against mouse L929 cells by MTT assay
Format: cell-based
Exercise: for every item that follows, state its recorded Activity.

State its Activity for this compound: C[C@H]1CCC2C(C)(C)CCC[C@]2(C)/C1=C/c1cc(O)c(O)c(/C=N/CCS(=O)(=O)O)c1OS(=O)(=O)O (stereo not given in full)
10 µg/mL

State its Activity for this compound: C=C1CCCC2[C@](C)(Cc3cc(CO)cc(O)c3OS(=O)(=O)O)[C@@H](C)CC[C@]12C (stereo not given in full)
> 40 µg/mL

State its Activity for this compound: C[C@H]1CCC2C(C)(C)CCC[C@]2(C)/C1=C/c1cc(O)c(O)c(C=O)c1O (stereo not given in full)
0.2 µg/mL

State its Activity for this compound: C=C1CCCC2[C@](C)(Cc3cc(C=O)cc(O)c3OS(=O)(=O)O)[C@@H](C)CC[C@]12C (stereo not given in full)
10 µg/mL

State its Activity for this compound: C[C@H]1CCC2C(C)(C)CCC[C@]2(C)/C1=C/c1cc(OS(=O)(=O)O)c(O)c(C=O)c1OS(=O)(=O)O (stereo not given in full)
> 40 µg/mL
